Data credit: patent US20180291096A1

Task for the reader: assign each of the following binders its reported Kd.
Molecular target: T1, recombinant human IL-23 (hrIL-23), produced at Centocor (human, UniProt P29460 23-328)
T1 construct: p19-p40 heterodimer; also called rhIL-23; huIL-23
T1 sequence 1: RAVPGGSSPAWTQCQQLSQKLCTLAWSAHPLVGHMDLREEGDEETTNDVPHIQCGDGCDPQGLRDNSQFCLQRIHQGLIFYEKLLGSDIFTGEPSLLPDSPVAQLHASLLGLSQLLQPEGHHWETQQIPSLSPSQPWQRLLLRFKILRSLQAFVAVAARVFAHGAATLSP
T1 sequence 2: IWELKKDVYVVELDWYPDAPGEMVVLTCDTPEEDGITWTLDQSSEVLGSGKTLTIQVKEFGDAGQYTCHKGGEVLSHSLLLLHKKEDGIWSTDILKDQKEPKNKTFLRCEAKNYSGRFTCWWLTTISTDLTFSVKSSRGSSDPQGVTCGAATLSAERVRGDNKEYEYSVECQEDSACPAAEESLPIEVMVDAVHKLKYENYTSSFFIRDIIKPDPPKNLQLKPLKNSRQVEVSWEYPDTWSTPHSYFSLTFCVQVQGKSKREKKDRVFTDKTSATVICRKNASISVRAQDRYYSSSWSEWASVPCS
Experiment: SET
Field format: number, assumed nM, no unit text.

The reported Kd of the binder MOR05050 Fab (Fab, V domains shown, Fab) VH: QVQLVESGGGLVQPGGSLRLSCAASGFTFSSFGMSWVRQAPGKGLEWVSSIEHKYTGYTTYYAAPVKGRFTISRDNSKNTLYLQMNSLRAEDTAVYYCARYWGTPYLMQFDNWGQGTLVTVSS VL: DIALTQPASVSGSPGQSITISCTGTSSDVGGYNSVSWYQQHPGKAPKLMIYSVSSRPSGVSNRFSGSKSGNTASLTISGLQAEDEADYYCSSYDTNKPLVVFGGGTKLTVL was 0.023

The reported Kd of the binder MOR05047 Fab (Fab, V domains shown, Fab) VH: QVQLVESGGGLVQPGGSLRLSCAASGFTFSSFGMSWVRQAPGKGLEWVSNIEHKYLGYATSYAASVKGRFTISRDNSKNTLYLQMNSLRAEDTAVYYCARYWGTPYLMQFDNWGQGTLVTVSS VL: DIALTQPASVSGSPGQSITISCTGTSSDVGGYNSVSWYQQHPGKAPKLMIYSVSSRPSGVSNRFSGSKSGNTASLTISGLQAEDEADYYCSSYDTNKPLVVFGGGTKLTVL was 0.036

The reported Kd of the binder MOR05039 Fab (Fab, V domains shown, Fab) VH: QVQLVESGGGLVQPGGSLRLSCAASGFTFSSFGMSWVRQAPGKGLEWVSNIEHKYLNYATYYAASVKGRFTISRDNSKNTLYLQMNSLRAEDTAVYYCARYWGTPYLMQFDNWGQGTLVTVSS VL: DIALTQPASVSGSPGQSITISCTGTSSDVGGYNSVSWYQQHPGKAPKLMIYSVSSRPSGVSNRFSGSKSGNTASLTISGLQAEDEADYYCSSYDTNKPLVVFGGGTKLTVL was 0.027
